# testSystem: T1, human MSLN-FL-his protein (human, UniProt Q13421 296-580)
# T1 construct: made in HEK293E cells, purified on nickel column; also called hMSLN-FL-his; human MSLN full-length protein; not shown: His tag
# T1 sequence (Q13421 other isoform, or with tags, fused parts or gaps): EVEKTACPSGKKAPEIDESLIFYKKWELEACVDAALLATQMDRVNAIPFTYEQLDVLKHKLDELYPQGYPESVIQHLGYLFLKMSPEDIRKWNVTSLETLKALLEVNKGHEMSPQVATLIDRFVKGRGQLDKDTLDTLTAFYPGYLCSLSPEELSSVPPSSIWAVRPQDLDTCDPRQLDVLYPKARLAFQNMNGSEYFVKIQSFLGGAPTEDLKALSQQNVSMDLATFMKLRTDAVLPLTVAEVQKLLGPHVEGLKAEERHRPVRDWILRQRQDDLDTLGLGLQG
# experimentalProtocol: SPR (Biacore), antibody captured on Protein A chip;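 note: flow cell at 25 °C, antigen injected for 240 s at five concentrations from 200 nM downward, dissociation followed up to 600 s, double-referenced, fitted with Langmuir 1:1 model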
pKd reference
// pKd here means minus log10 of the molar concentration (mol/L)

S009-F8-19.21 (antibody, human IgG1, kappa, V domains shown, human-murine chimeric antibody, human IgG1/kappa constant regions) VH: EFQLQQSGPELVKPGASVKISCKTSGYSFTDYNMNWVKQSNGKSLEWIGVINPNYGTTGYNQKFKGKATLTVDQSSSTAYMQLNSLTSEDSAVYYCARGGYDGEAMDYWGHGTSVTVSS VL: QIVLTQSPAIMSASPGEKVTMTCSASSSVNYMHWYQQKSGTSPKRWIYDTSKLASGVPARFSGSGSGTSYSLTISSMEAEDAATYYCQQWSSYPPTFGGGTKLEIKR	8.70

Now let's try a different one.
Requested read-out: pKd. Entry: S009-F8-5.15 (antibody, human IgG1, kappa, V domains shown, human-murine chimeric antibody, human IgG1/kappa constant regions) VH: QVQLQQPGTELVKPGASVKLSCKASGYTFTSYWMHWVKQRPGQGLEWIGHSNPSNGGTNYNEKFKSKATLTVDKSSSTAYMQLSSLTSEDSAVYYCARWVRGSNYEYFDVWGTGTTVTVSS VL: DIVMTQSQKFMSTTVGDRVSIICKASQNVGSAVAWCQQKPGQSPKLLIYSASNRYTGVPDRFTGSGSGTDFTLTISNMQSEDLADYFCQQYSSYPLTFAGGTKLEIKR
7.56

The reported measurements were obtained from patent US20250250357A1.
